- assay-procedure: SUPPLEMENTARY: PAMPA permeability assay
- Type: physicochemical
- measurement-parameters: read-out: Permeability
Just a reminder that ties go to Not met: only Papp strictly below 2 ×10⁻⁶ cm/s counts as Met.

INSERT INTO measurements (molecule, class_assignment) VALUES
  ('O=C([C@H]1CCCCN1C(=O)COc1ccccc1)N1Cc2cc(F)c(N3CCOCC3)cc2C1', 'Not met'),
  ('Nc1cccc(-c2n[nH]c([C@H]3CCCCN3C(=O)COc3ccccc3)n2)c1', 'Not met'),
  ('COc1ccc(Cl)cc1S(=O)(=O)N1CCOc2ncc(C(=O)Nc3ccc(C(=O)O)cc3)cc21', 'Met'),
  ('O=C(COc1ccccc1)N1CCCC[C@@H]1c1nc(-c2ccc(=O)[nH]c2)no1', 'Not met'),
  ('COc1ccc(-c2noc(C3C[S+]([O-])CCN3C(=O)COc3ccccc3)n2)cc1 (centres undefined)', 'Not met'),
  ('O=C([C@H]1CCCCN1C(=O)COc1ccccc1)N1CCc2cccc(Cl)c2C1', 'Met'),
  ('COc1ccc(C)cc1S(=O)(=O)N1CCCc2ccc(C(=O)Nc3nc(CC(=O)O)cs3)cc21', 'Met'),
  ('O=C(COc1ccccc1)N1CCCC[C@@H]1c1noc(-c2cc[nH]n2)n1', 'Not met'),
  ('COc1ccc(Cl)cc1S(=O)(=O)N1CC[S+]([O-])c2ccc(C(=O)Nc3ccc(C(=O)O)cc3)cc21 (centres undefined)', 'Met');
